# ASSAY OVERVIEW: gradient 5% acetonitrile 3 min, to 50% in 2 min, to 85% in 15 min, held 3 min, 100 µL/min
# CONDITION PARAMETERS: column: Zorbax Extend-C18 2.1 x 50 mm; eluents: water / acetonitrile, 0.1% formic acid
MEASURED ENDPOINT: RP-LC retention time (s)
Answers are plain numbers, in s.

Value sought for every listed compound: RP-LC retention time.
1. Cc1ccc(C(=O)NCc2ccc(N3CCCC3)nc2)s1
2. CC1(C)O[C@H]2CC(=O)OC[C@]23[C@H]2CC[C@@]4(C)[C@H](c5ccoc5)OC(=O)C5O[C@]54[C@]2(C)C(=O)C[C@@H]13 (stereo partly drawn)
3. CN(CCc1ccncc1)C(=O)C1CCN(c2cnn(Cc3ccccc3)c(=O)c2)CC1

Output:
[601, 918, 612]
